Target: UniProt A8Q1N3
Sequence (A8Q1N3 1-241): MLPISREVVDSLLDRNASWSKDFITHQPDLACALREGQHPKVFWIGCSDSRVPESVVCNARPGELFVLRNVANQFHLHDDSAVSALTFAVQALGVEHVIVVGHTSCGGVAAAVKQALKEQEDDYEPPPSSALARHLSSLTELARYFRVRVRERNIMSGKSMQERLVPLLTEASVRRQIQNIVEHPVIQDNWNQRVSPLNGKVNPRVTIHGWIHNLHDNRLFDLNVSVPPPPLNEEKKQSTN
pKi: −log10 of the molar value.
Items are presented alongside their recorded pKi.

compound	study-target	pKi
COc1cc(OC)c2c(c1Cl)O[C@]1(C2=O)C(=O)C(C(CC(=O)NCc2ccc(S(N)(=O)=O)cc2)c2ccc(SC)cc2)C(=O)C[C@H]1C (stereo partly shown) [Compound 1h]	UniProt A8Q1N3	5.36
COc1cc(OC)c2c(c1Cl)OC1(C(=O)C=C(Nc3ccc(S(N)(=O)=O)cc3O)CC1C)C2=O (stereo not shown) [Compound 1d]	UniProt A8Q1N3	5.80
COc1cc(OC)c2c(c1Cl)OC1(C(=O)C=C(Nc3ccc(S(N)(=O)=O)cc3)CC1C)C2=O (stereo not shown) [Compound 1b]	UniProt A8Q1N3	6.32
COc1cc(OC)c2c(c1Cl)O[C@]1(C2=O)C(=O)C(C(CC(=O)NCCc2ccc(S(N)(=O)=O)cc2)c2ccc(SC)cc2)C(=O)C[C@H]1C (stereo partly shown) [Compound 1i]	UniProt A8Q1N3	5.72

* * *

Target: hCA I (Homo sapiens)
Param label: returns YES when Ki < 30 nM, returns NO otherwise, including exact equality.

compound	study-target	cat
COc1cc(OC)c2c(c1Cl)O[C@]1(C2=O)C(=O)C(C(CC(=O)NCC(=O)Nc2ccc(S(N)(=O)=O)cc2)c2ccc(SC)cc2)C(=O)C[C@H]1C (stereo partly drawn) [Compound 1j]	hCA I (Homo sapiens)	YES
COc1cc(OC)c2c(c1Cl)OC1(C(=O)C=C(Nc3ccc(S(N)(=O)=O)cc3O)CC1C)C2=O (stereo not drawn) [Compound 1d]	hCA I (Homo sapiens)	YES
COc1cc(C(CC(=O)NCCS(N)(=O)=O)C2C(=O)C[C@@H](C)[C@]3(Oc4c(Cl)c(OC)cc(OC)c4C3=O)C2=O)ccc1O (stereo partly drawn) [Compound 1g]	hCA I (Homo sapiens)	NO
COc1cc(OC)c2c(c1Cl)O[C@]1(C2=O)C(=O)C(C(CC(=O)NCCc2ccc(S(N)(=O)=O)cc2)c2ccc(SC)cc2)C(=O)C[C@H]1C (stereo partly drawn) [Compound 1i]	hCA I (Homo sapiens)	YES
COc1cc(OC)c2c(c1Cl)OC1(C(=O)C=C(Nc3ccc(S(N)(=O)=O)cc3)CC1C)C2=O (stereo not drawn) [Compound 1b]	hCA I (Homo sapiens)	NO
COc1cc(OC)c2c(c1Cl)OC1(C(=O)C=C(NCc3ccc(S(N)(=O)=O)cc3)CC1C)C2=O (stereo not drawn) [Compound 1c]	hCA I (Homo sapiens)	NO

* * *

Notes on Ki obtained with hCA I (Homo sapiens, UniProt P00915).
Sequence (P00915 whole entry): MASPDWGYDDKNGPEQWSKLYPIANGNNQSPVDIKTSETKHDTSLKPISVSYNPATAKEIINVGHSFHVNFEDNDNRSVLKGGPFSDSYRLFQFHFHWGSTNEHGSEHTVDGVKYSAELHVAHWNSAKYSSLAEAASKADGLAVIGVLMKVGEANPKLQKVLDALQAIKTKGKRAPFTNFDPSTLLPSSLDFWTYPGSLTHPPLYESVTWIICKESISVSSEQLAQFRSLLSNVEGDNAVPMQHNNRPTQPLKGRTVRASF
measured-parameter: Ki

molecule	meas-value
COc1cc(OC)c2c(c1Cl)O[C@]1(C2=O)C(=O)C(C(CC(=O)NCc2ccc(S(N)(=O)=O)cc2)c2ccc(SC)cc2)C(=O)C[C@H]1C (some centres unmarked)	41.1 nM
COc1cc(OC)c2c(c1Cl)O[C@@]1(C(=O)C(=CNCCc3ccc(S(N)(=O)=O)cc3)C(=O)C[C@H]1C)C2=O	348 nM
COc1cc(OC)c2c(c1Cl)OC1(C(=O)C=C(NCCS(N)(=O)=O)CC1C)C2=O (centres unmarked)	562 nM
COc1cc(OC)c2c(c1Cl)O[C@@]1(C(=O)/C(=C\NCc3ccc(S(N)(=O)=O)cc3)C(=O)C[C@H]1C)C2=O	320 nM
CC(=O)c1c(O)c(C)c(O)c2c1OC1=CC(=O)C(=C(C)Nc3ccc(S(N)(=O)=O)cc3O)C(=O)[C@@]12C	370 nM

# credit: paper PMC9917406
